FYI, the data here is from patent US20040147561A1.

Entries and their measured melting point follow.
Counter-ions that a name gives are not always drawn.

[
  {
    "molecule": "CCOC(=O)c1cc(-c2csc(-c3ccnc(NCc4ccccc4)c3)n2)c(=O)[nH]c1C",
    "melting point": "290 °C (dec.)"
  },
  {
    "molecule": "CCOC(=O)c1cc(-c2csc(-c3ccnc(NCC4CCCC4)c3)n2)c(=O)[nH]c1C (as salt: HCl)",
    "melting point": "260 °C (dec.)"
  },
  {
    "molecule": "CCOC(=O)c1cc(-c2csc(-c3c(Cl)cccc3Cl)n2)c(=O)[nH]c1C",
    "melting point": "260 °C (dec.)"
  },
  {
    "molecule": "CCOC(=O)c1cc(-c2csc(-c3csc(C)n3)n2)c(=O)[nH]c1C",
    "melting point": "195 °C (dec.)"
  },
  {
    "molecule": "CCOC(=O)c1cc(-c2csc(CS(=O)(=O)Cc3ccc(F)cc3)n2)c(=O)[nH]c1C",
    "melting point": "300 °C (dec.)"
  },
  {
    "molecule": "Cc1[nH]c(=O)c(-c2csc(-c3ccnc(NCC4CC4)c3)n2)cc1C(=O)NCC1CC1 (as salt: HCl)",
    "melting point": "> 260 °C"
  },
  {
    "molecule": "CCOC(=O)c1cc(-c2csc(-c3cccs3)n2)c(=O)[nH]c1C",
    "melting point": "230 °C (dec.)"
  }
]

====

Entries and their measured melting point follow.
Structures can show the parent of a compound that is named as a salt.
endpointName: melting point

[
  {
    "molecule": "COCc1ccc(-c2csc(-c3ccncc3)n2)c(=O)[nH]1 [Example 70]",
    "endpointName": "melting point",
    "experimentalResult": "249 to 254 °C"
  },
  {
    "molecule": "CCOC(=O)c1cc(-c2csc(-c3ccnc(NCc4ccco4)c3)n2)c(=O)[nH]c1C (as salt: HCl) [Example 53]",
    "endpointName": "melting point",
    "experimentalResult": "260 °C (dec.)"
  },
  {
    "molecule": "CCOC(=O)c1cc(-c2csc(CCn3cccc(C(F)(F)F)c3=O)n2)c(=O)[nH]c1C [Example 51]",
    "endpointName": "melting point",
    "experimentalResult": "250 °C (dec.)"
  },
  {
    "molecule": "CCOC(=O)c1cc(-c2csc(-c3ccnc(NCc4ccc(F)cc4)c3)n2)c(=O)[nH]c1C (as salt: HCl) [Example 55]",
    "endpointName": "melting point",
    "experimentalResult": "280 °C (dec.)"
  },
  {
    "molecule": "CCOC(=O)c1cc(-c2csc(-c3ccnc(N)c3)n2)c(=O)[nH]c1C [Example 65]",
    "endpointName": "melting point",
    "experimentalResult": "> 260 °C"
  },
  {
    "molecule": "CCCCNc1cc(-c2nc(-c3cc(C(=O)OCC)c(C)[nH]c3=O)cs2)ccn1 (as salt: HCl) [Example 56]",
    "endpointName": "melting point",
    "experimentalResult": "230 °C (dec.)"
  },
  {
    "molecule": "CCOC(=O)c1cc(-c2csc(-c3ccnc(NCC(C)C)c3)n2)c(=O)[nH]c1C [Example 46]",
    "endpointName": "melting point",
    "experimentalResult": "260 °C (dec.)"
  },
  {
    "molecule": "CCOC(=O)c1cc(-c2csc(CS(=O)(=O)c3cccs3)n2)c(=O)[nH]c1C [Example 24]",
    "endpointName": "melting point",
    "experimentalResult": "300 °C (dec.)"
  },
  {
    "molecule": "CCOC(=O)c1cc(-c2csc(-c3ccnc(Cl)c3)n2)c(=O)[nH]c1C [Example 40]",
    "endpointName": "melting point",
    "experimentalResult": "250 °C (dec.)"
  },
  {
    "molecule": "CCOC(=O)c1cc(-c2csc(-c3ccccc3)n2)c(=O)[nH]c1C [Example 33]",
    "endpointName": "melting point",
    "experimentalResult": "260 °C (dec.)"
  },
  {
    "molecule": "CCOC(=O)c1cc(-c2csc(-c3ccnc(NCc4ccc(OC)cc4)c3)n2)c(=O)[nH]c1C [Example 64]",
    "endpointName": "melting point",
    "experimentalResult": "> 260 °C"
  },
  {
    "molecule": "CCOC(=O)c1cc(-c2csc(-c3ccnc(NC)c3)n2)c(=O)[nH]c1C [Example 83]",
    "endpointName": "melting point",
    "experimentalResult": "270 °C (dec.)"
  },
  {
    "molecule": "CCOC(=O)c1cc(-c2csc(-c3ccnc(NC)c3)n2)c(=O)[nH]c1C(C)C (as salt: HCl) [Example 94]",
    "endpointName": "melting point",
    "experimentalResult": "> 230 °C"
  },
  {
    "molecule": "CCOC(=O)c1cc(-c2csc(-c3ccc(F)cc3)n2)c(=O)[nH]c1C [Example 34]",
    "endpointName": "melting point",
    "experimentalResult": "260 °C (dec.)"
  },
  {
    "molecule": "CCOC(=O)c1cc(-c2csc(CS(C)(=O)=O)n2)c(=O)[nH]c1C [Example 43]",
    "endpointName": "melting point",
    "experimentalResult": "230 °C (dec.)"
  },
  {
    "molecule": "CCOC(=O)c1cc(-c2csc(N(C)S(=O)(=O)c3ccccc3)n2)c(=O)[nH]c1C (as salt: salt) [Example 68]",
    "endpointName": "melting point",
    "experimentalResult": "231 to 234 °C"
  },
  {
    "molecule": "CCOC(=O)c1cc(-c2csc(CS(=O)(=O)Cc3ccco3)n2)c(=O)[nH]c1C [Example 37]",
    "endpointName": "melting point",
    "experimentalResult": "290 °C (dec.)"
  },
  {
    "molecule": "CCOC(=O)c1cc(-c2csc(CS(=O)(=O)Cc3cccc(C(F)(F)F)c3)n2)c(=O)[nH]c1C [Example 30]",
    "endpointName": "melting point",
    "experimentalResult": "300 °C (dec.)"
  },
  {
    "molecule": "CCNCCNC(=O)c1cc(-c2csc(-c3ccnc(NCCNCC)c3)n2)c(=O)[nH]c1C [Example 66]",
    "endpointName": "melting point",
    "experimentalResult": "> 260 °C"
  },
  {
    "molecule": "O=c1[nH]cc(Oc2ccccc2)cc1-c1csc(-c2ccncc2)n1 (as salt: salt) [Example 71]",
    "endpointName": "melting point",
    "experimentalResult": "243 to 245 °C"
  },
  {
    "molecule": "CCOC(=O)c1cc(-c2csc(-c3ccnc(N4CCCCC4)c3)n2)c(=O)[nH]c1C [Example 45]",
    "endpointName": "melting point",
    "experimentalResult": "260 °C (dec.)"
  },
  {
    "molecule": "CCOC(=O)c1cc(-c2csc(-c3ccnc(NCc4ccccn4)c3)n2)c(=O)[nH]c1C [Example 90]",
    "endpointName": "melting point",
    "experimentalResult": "270 °C (dec.)"
  },
  {
    "molecule": "CCOC(=O)c1cc(-c2csc(-c3ccnc(CC)c3)n2)c(=O)[nH]c1C [Example 29]",
    "endpointName": "melting point",
    "experimentalResult": "270 °C (dec.)"
  },
  {
    "molecule": "CCOC(=O)c1cc(-c2csc(-c3ccnc(N(C)C)c3)n2)c(=O)[nH]c1C(C)C (as salt: hydrochloride) [Example 93]",
    "endpointName": "melting point",
    "experimentalResult": "> 230 °C"
  },
  {
    "molecule": "CCOC(=O)c1cc(-c2csc(-c3ccnc(NCCN(CC)CC)c3)n2)c(=O)[nH]c1C [Example 52]",
    "endpointName": "melting point",
    "experimentalResult": "250 °C (dec.)"
  },
  {
    "molecule": "CCOC(=O)c1cc(-c2csc(-c3ccnc(NCCNC(C)=O)c3)n2)c(=O)[nH]c1C (as salt: HCl) [Example 58]",
    "endpointName": "melting point",
    "experimentalResult": "270 °C (dec.)"
  }
]
